All figures here come from PubChem BioAssay AID1159580.

assay_method_text: chemical genetic growth profiling, strain panel (AID 1159580);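 note: tested at 20 µM; growth read once vehicle control cultures reached saturation at 30 °C; 1 = growth at the plate median or of vehicle wells; lower values mean less growth of the strain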
assay_context: S. cerevisiae deletion strains, growth OD, locus YLR268W, strain sec22, stronger effect = lower value
In all, about 5,500 compounds went through this assay and about 2,000 (36%) were called active. About 18% were inconclusive and are not listed. Some of the results follow.
measured_metric: normalized growth
One number for each entry.

Returns the measured normalized growth for the input molecule. Input: `CCOP(=S)(OCC)SCn1c(=O)oc2cc(Cl)ccc21` 0.987

Answer for every listed entry: what is its normalized growth? The entries follow.
1. Nc1ncn([C@@H]2O[C@H](CO)[C@@H](O)[C@H]2O)c(=O)n1
2. CSCCC(NC=O)C(=O)NC(C)C(=O)O (centres undefined)
3. Nc1ccc(C(=O)NCC(=O)O)cc1
4. C1CNCCN1

[0.99, 0.987, 1.02, 0.987]
